- System: T-47D spheroids with HUVEC/MSC, viability
- experimental_details: Anticancer human tumor T-47D cell line growth inhibition [PI3K];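 further: spheroids exposed to agents for seven days before reading; percent of DMSO vehicle control luminescence so 100% = untreated growth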
- test_parameters: second compound 0.00316 µM; first compound 0.1 µM; hits give low values
Form field: viability, T/C (one value per entry).

[
  {
    "compound": "CCCS(=O)(=O)Nc1ccc(F)c(C(=O)c2c[nH]c3ncc(-c4ccc(Cl)cc4)cc23)c1F + COc1c(OCCCN2CCOCC2)ccc2c3n(c(=NC(=O)c4cnc(N)nc4)nc12)CCN3",
    "system_tested": "T-47D spheroids with HUVEC/MSC, viability",
    "viability, T/C": "86.9%"
  },
  {
    "compound": "CC(C)n1nc(-c2ccc3oc(N)nc3c2)c2c(N)ncnc21 + COc1c(OCCCN2CCOCC2)ccc2c3n(c(=NC(=O)c4cnc(N)nc4)nc12)CCN3",
    "system_tested": "T-47D spheroids with HUVEC/MSC, viability",
    "viability, T/C": "23.1%"
  },
  {
    "compound": "C#Cc1c(F)ccc2cc(O)cc(-c3ncc4c(N5CC6CCC(C5)N6)nc(OCC56CCCN5CC(F)C6)nc4c3F)c12 (stereo not given) + CC(Nc1ccc2c(c1)OCCn1cc(N3C(=O)OCC3C(F)F)nc1-2)C(N)=O",
    "system_tested": "T-47D spheroids with HUVEC/MSC, viability",
    "viability, T/C": "85.3%"
  },
  {
    "compound": "CCN1CCN(Cc2ccc(Nc3ncc(F)c(-c4cc(F)c5nc(C)n(C(C)C)c5c4)n3)nc2)CC1 + COc1c(OCCCN2CCOCC2)ccc2c3n(c(=NC(=O)c4cnc(N)nc4)nc12)CCN3",
    "system_tested": "T-47D spheroids with HUVEC/MSC, viability",
    "viability, T/C": "74.8%"
  },
  {
    "compound": "CC(Cn1ccc(-c2ccc(C#N)c(Cl)c2)n1)NC(=O)c1cc(C(C)O)[nH]n1 (stereo not given) + COc1c(OCCCN2CCOCC2)ccc2c3n(c(=NC(=O)c4cnc(N)nc4)nc12)CCN3",
    "system_tested": "T-47D spheroids with HUVEC/MSC, viability",
    "viability, T/C": "96%"
  }
]
